# targetDesc: T1, human PCSK9 D374Y gain-of-function mutant (human, UniProt Q8NBP7 31-692)
# T1 construct: It was AF647-labelled in the HepG2 cell-based assay and unlabelled in SPR; also called Human PCSK9 GOF; hPCSK9 GOF
# runDescription: ProteOn SPR, captured antibody, pH 7.6;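 note: antibodies captured via anti-human Fc on a GLC sensor chip, PCSK9 binding sensorgrams fitted to a 1:1 Langmuir model giving on and off rates, with KD derived from them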
pKd: −log10 of the molar value.
metric: pKd

CL-148219 QLT mutant (antibody, V domains shown) VH: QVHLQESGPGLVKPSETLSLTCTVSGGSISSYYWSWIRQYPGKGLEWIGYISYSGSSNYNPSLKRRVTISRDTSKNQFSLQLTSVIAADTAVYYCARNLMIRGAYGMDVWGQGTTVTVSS VL: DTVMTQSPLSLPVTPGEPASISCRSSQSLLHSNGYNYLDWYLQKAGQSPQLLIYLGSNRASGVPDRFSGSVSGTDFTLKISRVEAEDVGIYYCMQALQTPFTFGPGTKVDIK :: 9.52
CL-148489 (antibody, V domains shown, Human antibody with a kappa light chain) VH: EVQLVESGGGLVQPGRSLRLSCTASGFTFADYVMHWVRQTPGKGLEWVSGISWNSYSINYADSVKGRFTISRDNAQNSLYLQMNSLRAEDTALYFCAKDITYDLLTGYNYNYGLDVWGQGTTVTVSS VL: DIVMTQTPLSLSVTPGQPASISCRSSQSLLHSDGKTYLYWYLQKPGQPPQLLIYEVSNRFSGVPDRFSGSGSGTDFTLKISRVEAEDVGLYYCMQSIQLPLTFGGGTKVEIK :: 9.87
CL-148219 (antibody, V domains shown, NLT motif in heavy chain framework 3 confirmed N-glycosylated by mass spectrometry, Human antibody, captured through anti-human Fc in the SPR assay) VH: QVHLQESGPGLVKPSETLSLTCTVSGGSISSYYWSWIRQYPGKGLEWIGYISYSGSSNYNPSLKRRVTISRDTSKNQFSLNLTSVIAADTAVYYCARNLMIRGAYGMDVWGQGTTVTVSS VL: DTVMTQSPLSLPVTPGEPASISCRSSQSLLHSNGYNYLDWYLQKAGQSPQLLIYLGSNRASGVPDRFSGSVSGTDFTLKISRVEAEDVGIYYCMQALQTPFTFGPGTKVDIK :: 9.61
CL-274698 (antibody, V domains shown, Human antibody with a kappa light chain, derived from a PCSK9 knockout mouse) VH: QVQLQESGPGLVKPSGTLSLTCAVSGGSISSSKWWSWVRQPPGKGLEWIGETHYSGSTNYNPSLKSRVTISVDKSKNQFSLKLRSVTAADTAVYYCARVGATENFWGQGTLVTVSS VL: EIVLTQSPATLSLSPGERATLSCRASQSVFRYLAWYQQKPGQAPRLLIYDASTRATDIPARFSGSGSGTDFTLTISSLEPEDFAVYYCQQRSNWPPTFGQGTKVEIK :: 10.16
